// data source = ChEMBL document CHEMBL6074641

test system: ALK tyrosine kinase receptor (Homo sapiens, UniProt Q9UM73, E1167A)
Sequence (Q9UM73 19-1620 E1167A limits assumed): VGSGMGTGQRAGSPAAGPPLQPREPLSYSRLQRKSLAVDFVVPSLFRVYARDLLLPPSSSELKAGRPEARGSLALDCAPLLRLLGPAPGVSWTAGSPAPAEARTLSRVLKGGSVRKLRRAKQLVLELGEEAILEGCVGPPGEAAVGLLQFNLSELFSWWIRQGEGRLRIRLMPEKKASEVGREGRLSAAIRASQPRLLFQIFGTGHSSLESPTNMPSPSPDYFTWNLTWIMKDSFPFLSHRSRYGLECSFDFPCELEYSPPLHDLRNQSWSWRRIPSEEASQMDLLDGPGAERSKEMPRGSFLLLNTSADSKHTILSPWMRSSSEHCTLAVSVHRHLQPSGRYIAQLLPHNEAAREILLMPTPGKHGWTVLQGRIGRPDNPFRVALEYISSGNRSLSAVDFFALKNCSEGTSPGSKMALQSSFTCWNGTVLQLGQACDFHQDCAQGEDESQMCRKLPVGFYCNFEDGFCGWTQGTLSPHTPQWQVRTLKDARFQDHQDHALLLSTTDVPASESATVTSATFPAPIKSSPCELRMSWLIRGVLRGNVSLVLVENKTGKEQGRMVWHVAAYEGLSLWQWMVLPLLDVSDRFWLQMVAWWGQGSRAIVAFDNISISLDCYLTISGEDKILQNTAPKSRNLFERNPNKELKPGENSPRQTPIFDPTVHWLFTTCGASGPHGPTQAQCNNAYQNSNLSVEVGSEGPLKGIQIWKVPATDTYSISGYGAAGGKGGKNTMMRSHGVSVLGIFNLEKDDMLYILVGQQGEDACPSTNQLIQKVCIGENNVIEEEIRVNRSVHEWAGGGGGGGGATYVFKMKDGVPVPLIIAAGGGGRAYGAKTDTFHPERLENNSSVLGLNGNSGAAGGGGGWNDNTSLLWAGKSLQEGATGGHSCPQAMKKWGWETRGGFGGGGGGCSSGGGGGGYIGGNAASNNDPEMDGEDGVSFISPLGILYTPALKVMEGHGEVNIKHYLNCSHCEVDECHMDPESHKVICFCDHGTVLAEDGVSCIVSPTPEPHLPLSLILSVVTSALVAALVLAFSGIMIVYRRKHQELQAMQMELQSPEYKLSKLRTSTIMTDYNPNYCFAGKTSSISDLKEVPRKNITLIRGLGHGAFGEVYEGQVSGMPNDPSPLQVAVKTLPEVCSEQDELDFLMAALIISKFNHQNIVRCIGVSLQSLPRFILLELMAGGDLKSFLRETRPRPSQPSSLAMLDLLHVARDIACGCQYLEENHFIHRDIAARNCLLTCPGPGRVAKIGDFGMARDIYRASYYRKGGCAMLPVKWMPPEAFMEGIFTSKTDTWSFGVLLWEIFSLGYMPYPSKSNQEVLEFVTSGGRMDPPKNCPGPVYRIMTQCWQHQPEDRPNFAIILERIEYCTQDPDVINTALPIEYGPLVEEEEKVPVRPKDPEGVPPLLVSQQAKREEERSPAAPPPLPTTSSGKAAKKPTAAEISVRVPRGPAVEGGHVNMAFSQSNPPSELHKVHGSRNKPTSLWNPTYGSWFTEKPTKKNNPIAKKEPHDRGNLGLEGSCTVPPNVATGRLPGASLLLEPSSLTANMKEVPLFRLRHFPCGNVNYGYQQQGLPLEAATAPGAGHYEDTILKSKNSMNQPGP
assay: Inhibition of ALK E1167A mutant (unknown origin) expressed in Escherichia coli BL21 (DE3)
measurement type: IC50 (µM)
Give bare numbers, in µM.

For record Cc1cc(F)cc(Nc2ncc(Nc3ccc(SC(F)(F)F)cc3)cc2C(N)=O)c1 the listed IC50 is 4.43

###

test system: Cytochrome P450 2D6 (Homo sapiens)
Sequence (P10635 whole entry): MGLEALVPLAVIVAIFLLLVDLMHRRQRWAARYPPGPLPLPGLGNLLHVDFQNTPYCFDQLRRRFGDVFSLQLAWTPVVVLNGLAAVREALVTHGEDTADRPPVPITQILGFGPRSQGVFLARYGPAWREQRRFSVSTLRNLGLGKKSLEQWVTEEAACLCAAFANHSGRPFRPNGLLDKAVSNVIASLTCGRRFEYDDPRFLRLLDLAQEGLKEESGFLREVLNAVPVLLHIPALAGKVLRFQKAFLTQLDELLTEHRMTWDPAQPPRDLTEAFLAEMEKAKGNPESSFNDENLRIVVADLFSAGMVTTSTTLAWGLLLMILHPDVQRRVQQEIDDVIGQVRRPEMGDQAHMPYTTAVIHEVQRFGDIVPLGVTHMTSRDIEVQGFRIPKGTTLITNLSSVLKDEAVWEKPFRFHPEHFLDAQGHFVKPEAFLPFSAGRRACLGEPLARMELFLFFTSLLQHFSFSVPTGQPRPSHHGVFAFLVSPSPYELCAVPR
measurement type: IC50

For record Cc1cc(F)cc(Nc2ncc(Nc3ccc(SC(F)(F)F)cc3)cc2C(N)=O)c1 the listed IC50 is > 10 µM

###

test system: Cytochrome P450 2C19 (Homo sapiens, UniProt P33261)
Sequence (P33261 whole entry): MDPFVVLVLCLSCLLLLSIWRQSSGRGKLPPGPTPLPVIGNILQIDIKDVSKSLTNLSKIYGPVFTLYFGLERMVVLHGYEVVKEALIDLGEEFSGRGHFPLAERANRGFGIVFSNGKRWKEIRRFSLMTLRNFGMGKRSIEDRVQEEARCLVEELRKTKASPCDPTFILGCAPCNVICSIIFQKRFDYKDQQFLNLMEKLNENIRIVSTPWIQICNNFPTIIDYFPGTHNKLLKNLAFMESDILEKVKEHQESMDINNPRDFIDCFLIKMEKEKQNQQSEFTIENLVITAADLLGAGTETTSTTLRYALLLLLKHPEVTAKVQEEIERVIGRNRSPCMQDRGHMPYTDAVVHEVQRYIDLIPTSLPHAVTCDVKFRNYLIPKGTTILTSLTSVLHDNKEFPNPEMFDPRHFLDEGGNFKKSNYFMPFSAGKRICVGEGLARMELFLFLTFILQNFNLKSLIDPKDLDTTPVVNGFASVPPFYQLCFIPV
measurement type: pIC50
Numbers only, as −log10 of the molar value.

For record Cc1cc(F)cc(Nc2ncc(Nc3ccc(SC(F)(F)F)cc3)cc2C(N)=O)c1 the listed pIC50 is 5.08
